Cited source for all entries: PubChem BioAssay AID1996

Settings: buffer; pH 7.4; 200.0 µM
Attribute measured: log10 of solubility kinetic (log10 of the value in µg/mL)
Hello, just confirming the data are log10 of solubility kinetic with units of µg/mL.

For the compound shown here, CN1C(=O)c2ccc(NC(=O)c3cccc4ccccc34)cc2C1=O , give the reported log10 of solubility kinetic.
-0.10

For the compound shown here, COc1cc(/C=C(\NC(C)=O)C(=O)N2CCCCC2)ccc1OC(C)=O , give the reported log10 of solubility kinetic.
1.68

For the compound shown here, CC(=O)c1c(COC(=O)c2ccccc2Cl)nc2ccccc2[n+]1[O-] , give the reported log10 of solubility kinetic.
1.20

For the compound shown here, Cc1ccc[n+](C(C)C(=O)c2ccc(Cl)cc2)c1.[Br-] (stereo unspecified) , give the reported log10 of solubility kinetic.
1.65

For the compound shown here, O=C(COC(=O)c1ccc2c(c1)OCO2)Nc1ccccc1F , give the reported log10 of solubility kinetic.
0.80

###

Kindly supply the reported log10 of solubility kinetic values for the records listed here.
Details: buffer; pH 7.4; 200.0 µM
Hello, just confirming the data are log10 of solubility kinetic with units of µg/mL.

For the compound shown here, O=C(NCC1CCCN(C2Cc3ccccc3C2)C1)c1cccs1 (centres undefined) , give the reported log10 of solubility kinetic.
1.60

For the compound shown here, O=C(O)CC1(CC(=O)Nc2cc3ccccc3cn2)CCCCC1 , give the reported log10 of solubility kinetic.
1.61

For the compound shown here, CC(=O)Nc1ccc(CN2CCCCCC2)cc1 , give the reported log10 of solubility kinetic.
1.53

For the compound shown here, CC1Cc2ccccc2N1Cc1cccc(S(=O)(=O)N(C)C)c1 (centres undefined) , give the reported log10 of solubility kinetic.
0.97

For the compound shown here, COc1ccccc1C1C([N+](=O)[O-])=C(N)Oc2c1c(=O)oc1ccccc21 (centres undefined) , give the reported log10 of solubility kinetic.
0.34

For the compound shown here, CC(=O)c1ccc(NC(=O)C2CCCC2)cc1 , give the reported log10 of solubility kinetic.
1.51

For the compound shown here, COc1cc(NC(=O)COC(=O)c2cc(S(=O)(=O)N3CCOCC3)ccc2F)cc(OC)c1 , give the reported log10 of solubility kinetic.
1.53

For the compound shown here, O=C1CSc2ccc(C(=O)NCCc3ccc(Cl)cc3Cl)cc2N1 , give the reported log10 of solubility kinetic.
0.57

For the compound shown here, CCOC(=O)CNC(=O)c1cnc(Nc2ccccc2OC)c2ccccc12 , give the reported log10 of solubility kinetic.
0.73

For the compound shown here, O=C(NCCCn1ccnc1)C(=O)Nc1ccccc1 , give the reported log10 of solubility kinetic.
1.60

For the compound shown here, O=C(NCCOc1ccc(Cl)cc1)c1ccc2ccccc2n1 , give the reported log10 of solubility kinetic.
0.60

For the compound shown here, COc1ccccc1C(=O)NCCC(=O)N1CCCC(C(F)(F)F)C1 (centres undefined) , give the reported log10 of solubility kinetic.
1.72

For the compound shown here, CCCC/C=C1\CCc2c([nH]c3ccccc23)C1=O , give the reported log10 of solubility kinetic.
0.30

For the compound shown here, O=C(CN1C(=O)NC2(CCCC2)C1=O)Nc1cc(C(F)(F)F)ccc1N1CCOCC1 , give the reported log10 of solubility kinetic.
0.72

For the compound shown here, CCOc1ccccc1NC(=O)c1nc(-c2ccccc2)oc1C , give the reported log10 of solubility kinetic.
-0.05

For the compound shown here, O=C(Nc1ccc(F)cc1)c1ccc2nsnc2c1 , give the reported log10 of solubility kinetic.
0.73

For the compound shown here, COc1ccc(OC)c(NC(=O)CCNC(=O)c2ccco2)c1 , give the reported log10 of solubility kinetic.
1.65

For the compound shown here, Nc1cc(N)nc(SCC(=O)Nc2ccccc2N2CCOCC2)n1 , give the reported log10 of solubility kinetic.
1.70

For the compound shown here, CCCC(C(=O)Nc1ccc2c(C)cc(=O)oc2c1)c1ccccc1 (centres undefined) , give the reported log10 of solubility kinetic.
0.46

For the compound shown here, CS/C(N)=N/C(=S)Nc1cccc(Cl)c1 , give the reported log10 of solubility kinetic.
1.50

For the compound shown here, C=CCc1cccc2cc(C(=O)NCCOC)c(=O)oc12 , give the reported log10 of solubility kinetic.
1.62

For the compound shown here, COCc1cc(C)n(CC(=O)NCC2CCCO2)c(=O)c1C#N (centres undefined) , give the reported log10 of solubility kinetic.
1.62

For the compound shown here, Cc1cc(C(=O)CCC(=O)N2CCN(c3ccccc3)CC2)c(C)s1 , give the reported log10 of solubility kinetic.
1.67

For the compound shown here, COc1ccc(O)c(/C=N/c2sc(C)c(C)c2C#N)c1 , give the reported log10 of solubility kinetic.
0.00

For the compound shown here, CC1(C)Cc2ccccc2-c2nc(NCCCO)[nH]c(=O)c21 , give the reported log10 of solubility kinetic.
1.60
